Tested on: L. minor alcohol dehydrogenase
Test: Enzyme stability in organic solvents
Assay type: biochemical, Lactobacillus minor
Conditions: 20% solvent not miscible with water, two phases shaken 200 rpm, room temperature, 48 h
Note to self: values exactly at 20% are satisfied. So Enzyme activity relative to starting value, t = 48 h at or above 20% is satisfied, below is not satisfied.

{"columns": ["molecule", "category"],
 "data": [
  ["CCCCCCC", "not satisfied"],
  ["COC(C)(C)C", "satisfied"],
  ["CCCCC", "not satisfied"],
  ["CCCCCCCC", "not satisfied"],
  ["CCOC(C)=O [ethyl acetate]", "not satisfied"],
  ["CCCCCC", "not satisfied"],
  ["CCOCC", "satisfied"],
  ["CC(C)OC(C)C", "satisfied"]
]}

---

Activity in % (n = 2) for assorted molecules
Tested on: alcohol dehydrogenase from Lactobacillus minor
Experiment: Spectrum of substrates
Type: biochemical
Settings: 10 mM keto compound as substrate, 0.19 mM NADPH, pH 7.0; activity with ethyl 4-chloro-3-oxo-butanoate set to 100%
observation type: Activity in % (n = 2) (%)

{"columns": ["molecule", "target desc", "assay value"],
 "data": [
  ["CCCCCCC(C)=O [2-Octanone]", "alcohol dehydrogenase from Lactobacillus minor", 90.8],
  ["CCOC(=O)C(C)=O [Ethyl pyruvate]", "alcohol dehydrogenase from Lactobacillus minor", 192.3],
  ["CCOC(=O)CC(=O)CCl [Ethyl 4-chloro-3-oxo-butanoate]", "alcohol dehydrogenase from Lactobacillus minor", 100],
  ["COC(=O)CC(C)=O [Methyl acetoacetate]", "alcohol dehydrogenase from Lactobacillus minor", 120],
  ["CCOC(=O)C(=O)CCc1ccccc1 [Ethyl 2-oxo-4-phenylbutyrate]", "alcohol dehydrogenase from Lactobacillus minor", 62.7]
]}

---

Test system: L. minor alcohol dehydrogenase
Assay: Enzyme stability in organic solvents
Assay type: biochemical, Lactobacillus minor
Details: 20% solvent not miscible with water, two phases shaken 200 rpm, room temperature, 2 h
Measured Enzyme activity relative to starting value, t = 2 h accompanies every entry in the list below.
observation type: Enzyme activity relative to starting value, t = 2 h

{"columns": ["compound", "target desc", "assay value"],
 "data": [
  ["COC(C)(C)C", "L. minor alcohol dehydrogenase", "67%"],
  ["CCOC(C)=O [ethyl acetate]", "L. minor alcohol dehydrogenase", "87%"],
  ["CCCCCCCC", "L. minor alcohol dehydrogenase", "87%"],
  ["CCCCCCC", "L. minor alcohol dehydrogenase", "51%"],
  ["CCCCC", "L. minor alcohol dehydrogenase", "74%"],
  ["CCOCC", "L. minor alcohol dehydrogenase", "53%"],
  ["CC(C)OC(C)C", "L. minor alcohol dehydrogenase", "100%"],
  ["CCCCCC", "L. minor alcohol dehydrogenase", "80%"]
]}

---

System: L. minor alcohol dehydrogenase
Assay: Enzyme stability in organic solvents
Format: biochemical, Lactobacillus minor
Conditions: 20% solvent not miscible with water, two phases shaken 200 rpm, room temperature, 8 h
Binary call on Enzyme activity relative to starting value, t = 8 h: Condition met from 50% upward, Condition not met beneath that.

{"columns": ["sample smiles", "target desc", "category"],
 "data": [
  ["CC(C)OC(C)C", "L. minor alcohol dehydrogenase", "Condition met"],
  ["CCCCC", "L. minor alcohol dehydrogenase", "Condition met"],
  ["CCCCCC", "L. minor alcohol dehydrogenase", "Condition not met"],
  ["CCCCCCCC", "L. minor alcohol dehydrogenase", "Condition not met"],
  ["CCOCC", "L. minor alcohol dehydrogenase", "Condition not met"]
]}

---

Test system: L. minor alcohol dehydrogenase
Assay: Enzyme stability in organic solvents
Type: biochemical, Lactobacillus minor
Conditions: 20% solvent not miscible with water, two phases shaken 200 rpm, room temperature, 24 h
Items are presented alongside their recorded Enzyme activity relative to starting value, t = 24 h.
observation type: Enzyme activity relative to starting value, t = 24 h (%)

{"columns": ["compound", "units of measure", "assay value"],
 "data": [
  ["CCCCC", "%", 7],
  ["CCCCCCC", "%", 7],
  ["CCCCCC", "%", 2],
  ["COC(C)(C)C", "%", 38],
  ["CC(C)OC(C)C", "%", 41],
  ["CCOCC", "%", 37],
  ["CCOC(C)=O [ethyl acetate]", "%", 10],
  ["CCCCCCCC", "%", 2]
]}

---

Test system: L. minor alcohol dehydrogenase
Assay: Enzyme stability in organic solvents
Assay type: biochemical, Lactobacillus minor
Conditions: 20% solvent not miscible with water, two phases shaken 200 rpm, room temperature, 8 h
observation type: Enzyme activity relative to starting value, t = 8 h (%)

{"columns": ["compound", "target desc", "units of measure", "assay value"],
 "data": [
  ["CCCCCCC", "L. minor alcohol dehydrogenase", "%", 49],
  ["CCOC(C)=O [ethyl acetate]", "L. minor alcohol dehydrogenase", "%", 50],
  ["COC(C)(C)C", "L. minor alcohol dehydrogenase", "%", 51]
]}
